target: Acetylcholinesterase from Electrophorus electricus (electric eel) (AChE) (Electrophorus electricus); test: ITC: titration of AChE with ligand, complexation (association) constant; assay type: binding; settings: ITC, 36.6 °C; one binding site model
Measure: Ka × 10^3 (binding/association constant, ITC)

Here is how some compounds turned out for Ka × 10^3 (binding/association constant, ITC).
INSERT INTO results (compound, observed) VALUES
  ('CCOC(=O)c1ccc(O)cc1 [ethyl 4-hydroxybenzoate]', '20.53 × 10^3 L/mol'),
  ('O=C(O)C(=O)Cc1ccc(O)cc1 [4-hydroxyphenylpyruvic acid]', '253 × 10^3 L/mol'),
  ('O=C(O)c1cccc(O)c1 [3-hydroxybenzoic acid]', '64.10 × 10^3 L/mol'),
  ('O=C(O)Cc1ccc(O)cc1 [4-hydroxyphenylacetic acid]', '66.23 × 10^3 L/mol');

What measured Ka × 10^3 (binding/association constant, ITC) goes with COC(=O)c1cc(OC)c(O)c(OC)c1 [methyl syringate] ?
154.32 × 10^3 L/mol

What measured Ka × 10^3 (binding/association constant, ITC) goes with `O=C(O)c1ccccc1O` ?
51.55 × 10^3 L/mol

What measured Ka × 10^3 (binding/association constant, ITC) goes with `O=C(O)Cc1cc(O)ccc1O` ?
116.92 × 10^3 L/mol

What measured Ka × 10^3 (binding/association constant, ITC) goes with CCOC(=O)c1ccc(O)c(OC)c1 [ethyl vanillate] ?
38.76 × 10^3 L/mol

What measured Ka × 10^3 (binding/association constant, ITC) goes with `O=C(O)c1cc(O)ccc1O` ?
76.92 × 10^3 L/mol

What measured Ka × 10^3 (binding/association constant, ITC) goes with `COc1cc(C(=O)O)cc(OC)c1O` ?
183.15 × 10^3 L/mol

What measured Ka × 10^3 (binding/association constant, ITC) goes with `COc1cc(C(=O)O)ccc1O` ?
52.36 × 10^3 L/mol

* * *

target: Acetylcholinesterase from Electrophorus electricus (electric eel) (AChE) (Electrophorus electricus); assay: ITC: titration of AChE with ligand, complexation (association) constant
Listed next: entries and their corresponding pKd.
Scale: negative log10 of molar concentration, which is what pKd denotes.

What measured pKd goes with O=C(O)c1ccccc1O [salicylic acid] ?
4.71

What measured pKd goes with O=C(O)C(=O)Cc1ccc(O)cc1 [4-hydroxyphenylpyruvic acid] ?
5.40

* * *

Listed next: entries and their corresponding % Inhibition (inhibitory activity, ITC).
target: Acetylcholinesterase from Electrophorus electricus (electric eel) (AChE) (Electrophorus electricus); assay type: biochemical; settings: 36.6 °C, AChE 1 μmol/L in cell, syringe hydroxybenzoic acid 0.5 mmol/L and ACh 1 mmol/L, mean ± SD of three
# output: bare number, implied unit %

Here is how some compounds turned out for % Inhibition (inhibitory activity, ITC).
INSERT INTO assay_data (compound, units_text, observed) VALUES
  ('O=C(O)Cc1ccc(O)cc1 [4-hydroxyphenylacetic acid]', '%', 80.20),
  ('O=C(O)c1cc(O)ccc1O [gentisic acid]', '%', 62.38),
  ('O=C(O)C(=O)Cc1ccc(O)cc1 [4-hydroxyphenylpyruvic acid]', '%', 84.93),
  ('O=C(O)c1ccccc1O [salicylic acid]', '%', 82.30),
  ('O=C(O)c1cccc(O)c1 [3-hydroxybenzoic acid]', '%', 74.80),
  ('COc1cc(C(=O)O)cc(OC)c1O [syringic acid]', '%', 71.80),
  ('COC(=O)c1cc(OC)c(O)c(OC)c1 [methyl syringate]', '%', 90.93),
  ('O=C(O)c1cc(O)c(O)c(O)c1 [gallic acid]', '%', 53.70),
  ('CCOC(=O)c1ccc(O)c(OC)c1 [ethyl vanillate]', '%', 14.60);

What measured % Inhibition (inhibitory activity, ITC) goes with CCOC(=O)c1ccc(O)cc1 [ethyl 4-hydroxybenzoate] ?
15.93

* * *

target: Acetylcholinesterase from Electrophorus electricus (electric eel) (AChE) (Electrophorus electricus, UniProt O42275); assay: ITC: titration of AChE with ligand, complexation (association) constant; assay type: binding
Sequence (O42275 24-633): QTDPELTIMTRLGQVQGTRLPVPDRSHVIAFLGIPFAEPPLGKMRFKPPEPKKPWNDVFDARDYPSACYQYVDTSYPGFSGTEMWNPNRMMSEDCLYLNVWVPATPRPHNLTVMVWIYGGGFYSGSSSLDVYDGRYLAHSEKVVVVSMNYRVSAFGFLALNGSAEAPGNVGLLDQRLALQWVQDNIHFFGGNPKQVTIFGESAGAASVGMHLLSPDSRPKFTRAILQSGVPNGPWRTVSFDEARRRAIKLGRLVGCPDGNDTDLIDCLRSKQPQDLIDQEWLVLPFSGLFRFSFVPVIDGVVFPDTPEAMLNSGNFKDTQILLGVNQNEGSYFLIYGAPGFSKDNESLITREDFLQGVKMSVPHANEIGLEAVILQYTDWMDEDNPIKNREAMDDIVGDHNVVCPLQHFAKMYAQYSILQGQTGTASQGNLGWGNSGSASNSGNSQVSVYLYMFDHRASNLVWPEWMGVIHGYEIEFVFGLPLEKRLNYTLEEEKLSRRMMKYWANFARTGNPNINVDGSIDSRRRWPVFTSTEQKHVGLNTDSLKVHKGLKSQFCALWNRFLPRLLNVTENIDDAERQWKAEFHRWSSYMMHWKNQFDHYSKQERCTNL
Ranges used to classify Kd: Low (below 10 µM), Medium (10 µM to below 20 µM), High (20 µM or more)

INSERT INTO assay_data (compound, classification) VALUES
  ('COc1cc(C(=O)O)ccc1O', 'Medium'),
  ('CCOC(=O)c1ccc(O)c(OC)c1 [ethyl vanillate]', 'High');

Let us examine a further case.
Just checking, what class would you give CCOC(=O)c1ccc(O)cc1 [ethyl 4-hydroxybenzoate] here?
High

* * *

target: Acetylcholinesterase from Electrophorus electricus (electric eel) (AChE) (Electrophorus electricus, UniProt O42275); experiment: ITC: titration of AChE with ligand, complexation (association) constant
Measure: Kd (µM)
# output: bare number, implied unit µM

Here is how some molecules turned out for Kd.
INSERT INTO measurements (molecule, measure, units_text, observed) VALUES
  ('COc1cc(C(=O)O)cc(OC)c1O', 'Kd', 'µM', 5.46),
  ('COC(=O)c1cc(OC)c(O)c(OC)c1 [methyl syringate]', 'Kd', 'µM', 6.48),
  ('O=C(O)c1cc(O)c(O)c(O)c1', 'Kd', 'µM', 19.4),
  ('COc1cc(CC(=O)O)ccc1O', 'Kd', 'µM', 7.35),
  ('O=C(O)c1ccc(O)c(O)c1', 'Kd', 'µM', 17.4);

What measured Kd goes with `O=C(O)Cc1cc(O)ccc1O` ?
8.55

What measured Kd goes with O=C(O)c1cccc(O)c1 [3-hydroxybenzoic acid] ?
15.6

What measured Kd goes with `O=C(O)c1cc(O)ccc1O` ?
13

What measured Kd goes with C[C@H](Cc1ccc(O)c(O)c1)[C@@H](C)Cc1ccc(O)c(O)c1 [nordihydroguaiaretic acid] ?
17.3

What measured Kd goes with O=C(O)Cc1ccc(O)cc1 [4-hydroxyphenylacetic acid] ?
15.1
